Where do these numbers come from? They come from ChEMBL document CHEMBL3259666.

# test name: Protein binding in plasma (unknown origin) by ultracentrifugation method
# Assay type: ADME, cell-free
# condition parameters: read-out: PPB
property name: fraction unbound

The molecule listed as COc1cccc(NC[C@H](F)Cn2c3ccc(Br)cc3c3cc(Br)ccc32)n1 has a reported fraction unbound of < 0.01

---

# test name: Cytotoxicity against human HCC44 cells
# Assay type: cell-based
property name: IC50

The compound listed as COc1cccc(NC[C@H](F)Cn2c3ccc(Br)cc3c3cc(Br)ccc32)n1 has a reported IC50 of > 10 µM

---

# test name: Half life in mouse at 20 mg/kg, po by HPLC/MS/MS analysis
# Format: ADME, organism-based
# Design: dose 20 mg/kg, route oral
# condition parameters: in vivo
property name: half-life
Don't forget the unit after the number, please.

The compound listed as COc1cccc(NCC(F)Cn2c3ccc(Br)cc3c3cc(Br)ccc32)n1 (racemic) has a reported half-life of 9.6 h
